Measurement Target: protein-protein interaction between Kras and SOS1 (biotin-tagged human Kras loaded with GDP, His-tagged human SOS1) (Homo sapiens (Human), UniProt P01116, G12D)
Protocol Text: Protein-protein interaction inhibition between Kras and SOS1 (KrasG12D-SOS PPI) using AlphaScreen;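 also: kras produced in E. coli, Ni-coupled donor beads and streptavidin acceptor beads, excitation 680 nm with emission detected at 520–620 nm via singlet oxygen transfer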
Assay type: biochemical
Reported Conditions: AlphaScreen; biotin-tagged human Kras loaded with GDP, His-tagged human SOS1; read-out: KRAS G12D-SOS PPI IC50
Square brackets hold non-standard residues; d marks the D form. Peptide text beside a SMILES is read from it. hPhe(3-Cl-4-CF3) = N[C@@H](CCc1ccc(C(F)(F)F)c(Cl)c1)C(=O)O; hPhe(4-CF3) = N[C@@H](CCc1ccc(C(F)(F)F)cc1)C(=O)O; NMePhe(4-Cl) = CN[C@@H](Cc1ccc(Cl)cc1)C(=O)O; NMeCha = CN[C@@H](CC1CCCCC1)C(=O)O; NMeL = CN[C@@H](CC(C)C)C(=O)O; NMeV = CN[C@H](C(=O)O)C(C)C; d(β3hA) = C[C@@H](N)CC(=O)O; NMeA = CN[C@@H](C)C(=O)O; Ac5c = NC1(C(=O)O)CCCC1; NBuGly = CCCCNCC(=O)O; Aib = CC(C)(N)C(=O)O; Sar = CNCC(=O)O
Recorded Metric: IC50

So, CC[C@H](C)[C@@H]1NC(=O)[C@H](C)N(C)C(=O)C[C@@H](C)NC(=O)[C@H](C(C)C)N(C)C(=O)C2(CCCC2)NC(=O)[C@@H]2CCCN2C(=O)[C@H](CCc2ccc(C(F)(F)F)c(Cl)c2)NC(=O)CN(C)C(=O)[C@H](CC2CCCCC2)N(C)C(=O)[C@@H]2CCCN2C(=O)CN(C)C1=O [Compound 1056] (cyclo([Ac5c][NMeV][d(β3hA)][NMeA]I[Sar]P[NMeCha][Sar][hPhe(3-Cl-4-CF3)]P)) ? Its IC50 was 18 nM

So, CCCCN1CC(=O)N(C)[C@@H](Cc2ccc(Cl)cc2)C(=O)N(C)CC(=O)N[C@@H](CCc2ccc(C(F)(F)F)cc2)C(=O)N(C)[C@@H](CC(C)C)C(=O)NC(C)(C)C(=O)N(C)[C@@H](CC(C)C)C(=O)N[C@H](C)CC(=O)N(C)[C@@H](C)C(=O)N[C@@H]([C@@H](C)CC)C(=O)N(C)CC1=O [Compound 602] (cyclo([Aib][NMeL][d(β3hA)][NMeA]I[Sar][NBuGly][NMePhe(4-Cl)][Sar][hPhe(4-CF3)][NMeL])) ? Its IC50 was 280 nM

Taken from patent US20240148821A1.
